All figures here come from paper PMC10138723.

- Test system: HepG2 (human hepatic cancer cells)
- Assay Overview: CCK-8 cytotoxic assay, HepG2
- Format: cell-based
- Condition Parameters: HepG2 cells, CCK-8, 24 h, read-out: IC50 ± SD, HepG2
Property Name: IC50 (µM)

{"Compound": "CC1CCC2(OC1)OC1CC3C4CC=C5CC(OC6OC(COC7(CO)OC(CO)C(O)C7O)C(OC7OC(CO)C(O)C7O)C(O)C6OC6OC(C)C(O)C(O)C6O)CCC5(C)C4CCC3(C)C1C2C (stereo not shown)", "Comparison Symbol": "=", "Result": 18.8}
{"Compound": "Cc1c(CCC(C)COC2OC(CO)C(O)C(O)C2O)ccc2c1C1(C)CCC3C(CC=C4CC(OC5OC(CO)C(O)C(O)C5OC5OC(C)C(O)C(O)C5O)CCC43C)C1C2 (stereo not shown) [Compound 12, parispseudoside B]", "Comparison Symbol": ">", "Result": 50}
{"Compound": "COc1cccc2c1C(=O)c1c(O)c3c(c(O)c1C2=O)C[C@@](O)(C(=O)CO)C[C@@H]3O[C@H]1C[C@H](N)[C@H](O)[C@H](C)O1 [Doxorubicin, reference compound]", "Comparison Symbol": "=", "Result": 0.21}
{"Compound": "CC1CCC2(OC1)OC1CC3C4CC=C5CC(OC6OC(COC7(CO)OC(CO)C(O)C7O)C(O)C(O)C6OC6OC(C)C(O)C(O)C6O)CCC5(C)C4CCC3(C)C1C2C (stereo not shown)", "Comparison Symbol": "=", "Result": 4.32}
